B1: 1-phosphatidylinositol 4,5-bisphosphate phosphodiesterase gamma-2, residues 772 to 827; numbered along this chain, P16885 (parent)
chain: RTVKALYDYKAKRSDELSFCRGALIHNVSKEPGGWWKGDYGTRIQQYFPSNYVEDI

# Variants of: B1
# assay.protocol: abundance fitness (aPCA) (normalised: wild type 0, dead -1); higher = more abundant; growth selection in yeast, the domain comes from the species named
# test.context: Homo sapiens
Returns one of 1.0 or 0.0; 1.0 when abundance fitness is >= -0.5.

The following variants have reported results that may help.
1. RTVKALYDYKAKRSDELSFCRGALIHNVSKEPPGWWKGDYGTRIQQYFPSNYVEDI	0.0
2. RTVKALYDYKAKRSDELSFCRGALWHNVSKEPGGWWKGDYGTRIQQYFPSNYVEDI	0.0

Could you verify whether the entry `RTVKALYDYKAKRSDELSFCRGALIHNVSKEPFGWWKGDYGTRIQQYFPSNYVEDI` shows abundance fitness of no less than -0.5? 1.0

Could you verify whether the entry `RTVKALYDYKAKRSDELSFCRGALIHNVSKEPGGWWKGDYGTRIQQYLPSNYVEDI` shows abundance fitness of no less than -0.5? 0.0

Could you verify whether the entry `RTVKALYDYKAKRSDELSFCRGALIHNVSKEPGGWWKGDYGTRIQQYFPSNYGEDI` shows abundance fitness of no less than -0.5? 0.0

Could you verify whether the entry `RTVKALYDYKAKRSDELSFCRGALIHNVSKEPGGWWRGDYGTRIQQYFPSNYVEDI` shows abundance fitness of no less than -0.5? 1.0

Could you verify whether the entry `RTVKALYDYKAHRSDELSFCRGALIHNVSKEPGGWWKGDYGTRIQQYFPSNYVEDI` shows abundance fitness of no less than -0.5? 1.0
